Test Details: NCI Yeast Anticancer Drug Screen. Data for the rad50 strain (AID 155);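 note: 0% = growth of vehicle-only cultures of the same strain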
Condition Parameters: S. cerevisiae rad50 strain growth inhibition; at 50.0 µM; stronger effect = higher value
About 79,000 compounds went through this panel and 15% of them were active in at least one assay; those are over-represented in the sample as a whole.
Recorded Endpoint: growth inhibition (%)

1) CCCCN1CCC2(CC1)COCc1ccccc12    57.2
2) CC(C)(C)OOC(=O)/C=C\C(=O)OOC(C)(C)C    5.05
3) CCC1(C(C)c2ccccc2)C(=O)NC(=O)NC1=O (configuration not stated)    0
4) O=C1C=CC=C[C@@H]2C(C3OCCO3)CC[C@H]12.[C-]#[O+].[C-]#[O+].[C-]#[O+].[Fe] (some centres not stated)    4.3
5) CCOP(=O)(OCC)C(C)(CC)/N=C(\N)NC#N (configuration not stated)    -4.8
6) [Cl][Pt+2][Cl].[NH-]c1ccc([N+](=O)[O-])cc1[NH-]    63.8
7) C1OCC2[CH2][Hg][S][Hg][CH2]C1O2    92.8
8) [Hg][c]1ccccc1    99.5
9) Cc1cccc[c]1[Sb](=[O])([OH])[OH]    6.6
10) CCCCCCOC(=O)C(N)Cc1ccc(OC)c(N(CCCl)CCCl)c1 (configuration not stated)    6.5
11) CN1CCN(Cc2ccccc2)C(C#N)C1 (configuration not stated)    -2.6
12) Cc1cc(C)n(SC(Cl)(Cl)Cl)n1    -12.3

====

Test Details: NCI Yeast Anticancer Drug Screen. Data for the cln2 rad14 strain (AID 165);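 note: 0% = growth equal to vehicle treated cultures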
Condition Parameters: S. cerevisiae cln2 rad14 strain, at 50.0 µM (retest, dose inferred, filed as 5.0)
The panel holds about 79,000 compounds, 15% with a hit somewhere; the sample as a whole holds those more often. Activity calls are given as the source filed them. Cut-off read from the data, not from the text of the source: active = growth inhibition above about 70%; inactive = the rest.
Labels: active, inactive

1) COc1cc(C2c3[nH]c4ccccc4c3[C@@H](Nc3ccc(C#N)cc3)[C@H]3COC(=O)N23)cc(OC)c1O (stereo partly specified)    inactive
2) S=C1NCCN1    inactive
3) O=C1N[C@H]2[C@H](O)[C@H](O)[C@@H](O)[C@H](O)[C@@H]2c2cc3c(c(O)c21)OCO3    inactive
4) CCN1CCC(O)(c2ccc(O)cc2)C(C(=O)c2ccc(O)cc2)C1 (stereo unspecified)    inactive
5) [N-]=[N+]=NC1(N=[N+]=[N-])C(=O)NN=C(c2ccccc2)C1=O (stereo unspecified)    active
6) O=C1C=Cc2ccccc2C1=O    active

====

Test Details: NCI Yeast Anticancer Drug Screen. Data for the cln2 rad14 strain (AID 165);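 note: 0% = growth equal to vehicle treated cultures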
Condition Parameters: S. cerevisiae cln2 rad14 strain, at 50.0 µM, stronger effect = higher value
Compounds without any hit were thinned out: in the full panel of roughly 79,000, 15% have a hit.
# growth inhibition annotations
Recorded Endpoint: growth inhibition (%)

1. CCCCCCCCCCCCCC(=O)[O][Hg][c]1ccccc1    99.6
2. Cc1c[n+]2ccc3ccccc3c2c2ccccc12    -78.2
3. CC(C(=O)O)C(Br)C(=O)O (centres undefined)    3.55
4. CS(=O)(=O)CS(=O)(=O)OCCF    -9.55
5. Clc1ccc(Cl)c(Cl)c1    96.5
6. N=C(N)N1CCNc2ccccc2C1    28.8
7. CN1CCN(C(=O)Cc2c[nH]c3ccccc23)CC1    -20.3
8. CC(=O)OC[C@]12C[C@H](OC(=O)CC(C)C)C(C)=C[C@H]1OC1[C@H](O)[C@@H](OC(C)=O)[C@@]2(C)[C@@]12CO2    91.8
9. O=NN(CC(=O)O)c1ncccn1    36.7
10. O=C(Cc1ccccc1)OCCBr    15.1
11. COC(=O)c1nc(-c2ccc3c(n2)C(=O)C(N)=C(OC)C3=O)c(N)c(-c2ccc(OC)c(OC)c2O)c1C    26.2
12. CCOP(=O)(OCC)C(C)(CC)/N=C(\N)NC#N (centres undefined)    12
13. C1CCC2[N-]CCCC2C1.C1CCC2[N-]CCCC2C1.O=[N+]([O-])O.O=[N+]([O-])O.[Cu+2] (centres undefined)    -19.2
14. [O-][n+]1onc2c1-c1nonc1CC2    16
15. CC(Cc1ccccc1)NC(=O)/C=C/C(=O)O (centres undefined)    -6.95
16. COP(=O)(OC)C(=O)c1ccc(C)cc1    -36.8
17. C1CCC(NC2CCCC2)C1    11.7
18. CC1(C)C2=CC[C@H]3[C@@H]4CC[C@H](O)[C@@]4(C)CC[C@@H]3[C@@]2(C)CC[C@@H]1O    -19.4
19. CCOP(=O)(NCCc1ccccc1)OCC    -3.9
20. CC(=O)O[C@H]1CCC2[C@@H]3CCC4c5nonc5CC[C@]4(C)C3CC[C@@]21C (some centres undefined)    35.1
21. CCOC(=O)C1C(O)=C(P(=O)(C2=C(O)C(C(=O)OCC)C(c3ccc(OC(C)=O)cc3)C(C(=O)O)C2=O)N(CCCl)CCCl)C(=O)C(C(=O)O)C1c1ccc(OC(C)=O)cc1 (centres undefined)    66.2
22. NC(=O)c1cc([N+](=O)[O-])c(Cl)c([N+](=O)[O-])c1    56.5
23. O=C(N/N=C/c1cc(Br)cc(Br)c1[O-])c1ccccc1O.O=C(N/N=C/c1cc(Br)cc(Br)c1[O-])c1ccccc1O.[Co+2]    92.5
24. CC(C)(C)C1COP(=S)(C(C)(C)C)OC1 (centres undefined)    -20.5
25. CCCCOP(=O)(CCCC)OCCCC.CCCCOP(=O)(CCCC)OCCCC.CCCCOP(=O)(CCCC)OCCCC.CCCCOP(=O)(CCCC)OCCCC.O.O.[Co+2].[O-][Cl+3]([O-])([O-])O    17.6
26. N.N.N.N.N.N.[I-].[Os]    7.6
27. O=C(Nc1cc(S(=O)(=O)F)ccc1Cl)Oc1ccc([N+](=O)[O-])cc1    11.3
28. [pH]1p2[pH]p3p1p3[pH]2.c1cc[c]([Ge]([c]2ccccc2)[c]2ccccc2)cc1.c1cc[c]([Ge]([c]2ccccc2)[c]2ccccc2)cc1.c1cc[c]([Ge]([c]2ccccc2)[c]2ccccc2)cc1    37.8
29. CC(C)(C)[Si](OC(=O)N(CCCl)CCCl)(c1ccccc1)c1ccccc1    68.4
30. Cc1nc(N)sc1S(=O)(=O)F    -14.1
31. COCCCCCC(=O)CP(=O)(OC)OC    -12.9
32. CC1(C)N=C(c2ccccc2)C2(c3ccccc3)N1C2(C)C (centres undefined)    -0.3
33. c1ccc2c(c1)CCNC2    5.15
34. CC(Cc1ccc(O)cc1)NCC(O)c1ccc(O)c(O)c1 (centres undefined)    0.55
35. COc1cc(C(=O)O)cc(OC)c1OC    -26.8
36. C(/COc1cccnc1)=N\NC1=NCCN1    3.7
37. CNC(=O)Oc1ccccc1C(N)=O    -46.8
38. CCNP(=S)(OCC)OCC    -3.9
39. CC[As](CC)SC(CC[C@@H](C)C1CC[C@@]2(C)C3=C(CC[C@]12C)[C@@]1(C)CC[C@H](O)C(C)(C)[C@@H]1CC3)C(C)C (some centres undefined)    -21.1
40. O=C(O)c1ccccc1.[Zn+2]    -74.6
41. CC[C@]12C=CCN3CC[C@@]4(c5ccc(OC)cc5N(C)[C@H]4[C@@](O)(C(=O)OC)[C@@H]1OC(C)=O)[C@@H]32    19.8
42. CC(=O)OCCCn1nc(COC(N)=O)c2c1CC(C)CC2=O (centres undefined)    -4.35
43. [Ni+2].[S-]CC[S-]    1.95
44. COC(=O)c1ccc([As]=O)cc1N (centres undefined)    98.5

Data origin: PubChem BioAssay (NCI)
